TEST NAME: qHTS of pediatric cancer cell lines to identify multiple opportunities for drug repurposing: Primary screen for SK-N-MC cells (AID 1347093)
MEASUREMENT PARAMETERS: SK-N-MC viability, CellTiter-Glo luminescence, 48 h; series mostly up to 46 µM
Results filed as inconclusive are left out. Activity calls are given as the source filed them. Calls follow the shape of the dose curve; as a rule, active = well fitted cell-killing curve with a large enough effect; inconclusive = small, poorly fitted or top-dose-only effect; inactive = no such curve, though single readings can be large or run the other way.
Select the correct class. Options are active, inactive and nothing else.

Some solved cases for reference:
[[record]]
chemical_smiles = "O=C(c1ccc(Nc2nccc(-c3cc4ccccc4s3)n2)cc1)N1CCC(N2CCCC2)CC1"
label = "active"

[[record]]
chemical_smiles = "Nc1nc(Nc2ccc(S(N)(=O)=O)cc2)nn1C(=O)c1c(F)cccc1F"
label = "active"


Ask | What call does the record list for Cc1c(Cn2c(C)nc3c(C(=O)O)cc(N4CCOCC4)cc32)cccc1C(F)(F)F ?
Reply | active

Ask | Kindly provide the recorded test outcome for the following compound: Cc1cn(-c2cc(NC(=O)c3ccc(C)c(Nc4nccc(-c5cccnc5)n4)c3)cc(C(F)(F)F)c2)cn1
Reply | inactive

Ask | Assay result, entry COc1cccc2nc(-c3cccs3)nc(NN3C(=O)C=C(C)C3=O)c12 — outcome?
Reply | active

Ask | Which outcome was entered for the compound O=C(O)CCCc1c[nH]c2ccccc12 in this test?
Reply | inactive

Ask | Status in this test for Cc1ccc(NC(=O)C2(c3ccc4c(c3)OC(F)(F)O4)CC2)nc1-c1cccc(C(=O)O)c1 ?
Reply | active

Ask | Each compound tested received a call. Report the one for Nc1ccn([C@@H]2O[C@H](CO)[C@H](O)C2(F)F)c(=O)n1 .
Reply | active

Ask | # lookup: test call for Cc1ccc(C(=O)Nc2cccc(C(F)(F)F)c2)cc1-c1ccc2nc(NCCN3CCOCC3)ncc2c1
Reply | active

###

TEST NAME: qHTS for identification of novel therapeutic agents for treatment of microphthalmiaassociated transcription factor (MiT) renal cell carcinoma (RCC) (AID 1963991)
MEASUREMENT PARAMETERS: TFE3-RCC viability, CellTiter-Glo, 48 h; measured here: UOK124 Z-AUC; stronger effect = lower value
Records with an inconclusive call do not appear.
Consider the cut-off -1. If the recorded z-score is strictly smaller, the label is y; if not, the label is n.

[[record]]
compound = "CC[C@H]1CN2CCc3cc(OC)c(OC)cc3[C@H]2C[C@@H]1C[C@@H]1NCCc2cc(OC)c(OC)cc21"
label = "y"

[[record]]
compound = "Cn1c2ccccc2c2c3c(c4c5ccccc5n(CCC#N)c4c21)CNC3=O"
label = "y"

[[record]]
compound = "O=C(O)CO.[NH2-].[NH2-].[Pt+2]"
label = "n"

[[record]]
compound = "CCCn1c(=O)c2[nH]c(-c3cnn(Cc4cccc(C(F)(F)F)c4)c3)nc2n(CC)c1=O"
label = "n"


Ask | Dear colleague, could you confirm whether z-score of Cc1ccc(-c2ncn(-c3ccc(Nc4nccc(-c5cccc(N6CCOCC6)c5)n4)cc3)n2)cn1 falls below -1? Thanks.
Reply | y

Ask | Does the reported z-score of the following compound sit strictly below -1? COc1ccc(-c2cc3c(C)nc(N)nc3n(C3CCC(OCCO)CC3)c2=O)cn1 (configuration not stated)
Reply | y

Ask | Confirm or reject: z-score of C=CCn1c(=O)c2cnc(Nc3ccc(N4CCN(C)CC4)cc3)nc2n1-c1cccc(C(C)(C)O)n1 lies strictly below -1
Reply | y

Ask | Field: below-cutoff. Rule: recorded z-score strictly less than -1. Subject: COc1cccc(Nc2c(C(N)=O)cnc3c(C)cc(S(=O)(=O)c4cccc(C(=O)N(C)C)c4)cc23)c1
Reply | n

Ask | In plain terms, does Cn1c2cc(S(C)=O)sc2c2cnn(Cc3cccc(N)c3)c(=O)c21 (configuration not stated) come in under -1 for z-score?
Reply | n

Ask | Please state whether z-score is below -1 for CC(C)c1cc(C(=O)N2Cc3ccc(CN4CCN(C)CC4)cc3C2)c(O)cc1O
Reply | n

Ask | For this compound, is z-score lower than -1? Cc1c(NC(=O)OC[C@@H]2COCCN2)cn2ncnc(Nc3ccc4c(cnn4Cc4cccc(F)c4)c3)c12
Reply | y
